Data origin, for the record: the supplement of paper PMC10724198

Kindly state protein stability index for each of the entries shown.
- Tested on: Saccharomyces cerevisiae;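 note: PSI is a weighted mean of sequencing reads over stability bins, variants kept only with over 10 reads, mCherry proximal and sfGFP distal, peptide attached via GGGS linker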
- Protocol: protein stability index of tFT-peptide fusion (C-terminal peptide) (PSI (0-1 scale)); higher = more stable (slower turnover)
- Condition Description: genetic background: wild type; temperature: 30 C
Numbers only.

Would you please look over these solved cases?
What the record says about FVRCFWPFVFVF : protein stability index is 0.126

What the record says about WGRENLTRVKLE : protein stability index is 0.2

What the record says about PPPLCSTCIRCC : protein stability index is 0.205

What the record says about VLDFSVPRHVLH : protein stability index is 0.678

What the record says about LSACYSRYVFVS : protein stability index is 0.093

What the record says about KCVVMFFLRSVS : protein stability index is 0.412

What the record says about FLFCACIRVFSY : protein stability index is 0.133

What the record says about FLLYVITYRSET : protein stability index is 0.225

What the record says about LRPTFLLLFRPL : protein stability index is 0.407

What the record says about QHRAIKIEIKIN : protein stability index is 0.0582

Parameter requested: protein stability index. Apply to each item below.
1. VRLYLRSCVVES
2. PPSPPLLFHFPP
3. GVYRLCLLLLVY

Solution:
[0.217, 0.658, 0.156]

Parameter requested: protein stability index. Apply to each item below.
1. YILRLMMEGICL
2. FLCLLSLFFLDF
3. ILRIYIPRWRRQ
4. NFSLFVHFLGLC

Solution:
1: 0.409; 2: 0.437; 3: 0.132; 4: 0.399

Parameter requested: protein stability index. Apply to each item below.
1. FGVRRSFVVFVV
2. RFFVRRVRVAVL
3. VYTVGFVCWLVY
4. ACSRKPIWVTWL
5. VFLRRFGVPWVF
6. LVLLIQKFLTDK

Solution:
1: 0.0934; 2: 0.382; 3: 0.176; 4: 0.276; 5: 0.227; 6: 0.617
